Assay type: physicochemical
Conditions: multilamellar liposomes, scan rate 20° C./h

- Compound: "CCCCCCCCCCCCCCCCOC[C@@H](COC(=O)CCCCCCCCCCCCCCC)OP(=O)([O-])OCC[N+](C)(C)C"
  Main-transition Tm (peak position), °C: 40.1
- Compound: "CCCCCCCCCCCCCCCC(=O)OC[C@H](COP(=O)(O)OCC(O)CO)OC(=O)CCCCCCCCCCCCCCC (stereo partly shown)"
  Main-transition Tm (peak position), °C: 40.6
- Compound: "CCCCCCCCCCCCCCCCOC[C@H](COP(=O)([O-])OCC[N+](C)(C)C)OC(=O)CCCCCCCCCCCCCCC"
  Main-transition Tm (peak position), °C: 42.6
- Compound: "CCCCCCCCCCCCCCCC(=O)OC[C@H](COP(=O)([O-])OCC[N+](C)(C)C)OC(=O)CCCCCCCCCCCCCCC"
  Main-transition Tm (peak position), °C: 40.5

###

Type: physicochemical

- Compound: "CCCCCCCCCCCCCCCC(=O)OC[C@H](COP(=O)(O)OCC(O)CO)OC(=O)CCCCCCCCCCCCCCC (stereo partly shown)"
  Main-transition ΔHm (melting enthalpy), kcal/mol: 9.8
- Compound: "CCCCCCCCCCCCCCCCOC[C@@H](COC(=O)CCCCCCCCCCCCCCC)OP(=O)([O-])OCC[N+](C)(C)C"
  Main-transition ΔHm (melting enthalpy), kcal/mol: 12.8
- Compound: "CCCCCCCCCCCCCCCC(=O)OC[C@H](COP(=O)([O-])OCC[N+](C)(C)C)OC(=O)CCCCCCCCCCCCCCC"
  Main-transition ΔHm (melting enthalpy), kcal/mol: 8.7
- Compound: "CCCCCCCCCCCCCCCCOC[C@H](COP(=O)([O-])OCC[N+](C)(C)C)OC(=O)CCCCCCCCCCCCCCC"
  Main-transition ΔHm (melting enthalpy), kcal/mol: 8.5

Where do the numbers come from? From patent US20080014253A1.
